Hey, just so you know, these numbers are from patent US20210338779A1.

in vitro activity (%, relative to SEQ ID NO: 1); cAMP assay, from EC50 values for the binders below.
Molecular target: human glucagon receptor (human, UniProt P47871 26-477)
Sequence (P47871 26-477): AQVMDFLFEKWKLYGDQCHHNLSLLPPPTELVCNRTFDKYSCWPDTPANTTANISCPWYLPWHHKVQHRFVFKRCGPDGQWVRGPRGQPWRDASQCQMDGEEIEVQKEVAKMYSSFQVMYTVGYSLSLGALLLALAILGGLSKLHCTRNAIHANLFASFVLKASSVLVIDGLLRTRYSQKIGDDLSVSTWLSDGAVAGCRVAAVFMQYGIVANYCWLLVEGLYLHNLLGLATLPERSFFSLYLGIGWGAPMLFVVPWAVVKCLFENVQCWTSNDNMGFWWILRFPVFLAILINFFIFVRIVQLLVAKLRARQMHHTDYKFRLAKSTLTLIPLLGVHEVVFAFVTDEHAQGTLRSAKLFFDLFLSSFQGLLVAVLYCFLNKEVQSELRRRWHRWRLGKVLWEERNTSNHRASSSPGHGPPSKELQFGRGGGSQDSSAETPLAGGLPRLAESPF
Test: cell-based or functional assay
Positions of bridges follow the written chain, without caps; N, C: chain ends. Non-standard residues stand in square brackets, D forms with d. No end group written: not given here. Aib = CC(C)(N)C(=O)O
Your answer should be a plain number; it is taken to be in %.

Below are worked cases with known answers.
Y[Aib]QGTFTSDYSKYLDEKRAKCFVQWLMNT (lactam 16-20) [glucagon derivative of SEQ ID NO: 25] : 46.9
Y[Aib]QGTFTSDYSKYLDECRAKEFVQWLMNT (lactam 16-20) [glucagon derivative of SEQ ID NO: 20] : 300
Y[Aib]QGTFVSDYSKYLDECRAKDFVQWLMNT (lactam 16-20) [glucagon derivative of SEQ ID NO: 27] : 93.6
Y[Aib]QGTFTSDYSKYLDEKCAKEFVQWLMNT [glucagon derivative of SEQ ID NO: 11] : 4.6
Y[Aib]QGTFTSDYSKYLDCKRAKEFVQWLMNT [glucagon derivative of SEQ ID NO: 14] : 18.1

Using the record for W[Aib]QGTFTSDYSKCLDERRAKDFVQWLMNT (lactam 16-20) [glucagon derivative of SEQ ID NO: 30] , state its measured in vitro activity (%, relative to SEQ ID NO: 1); cAMP assay, from EC50.
0.3

Using the record for Y[Aib]QGTFTSDYSKYLDCVRAQDFVQWLMRT [glucagon derivative of SEQ ID NO: 17] , state its measured in vitro activity (%, relative to SEQ ID NO: 1); cAMP assay, from EC50.
23.2

Using the record for Y[Aib]QGTFTSDYSKYLCEKRAQDFVVWLMNT [glucagon derivative of SEQ ID NO: 15] , state its measured in vitro activity (%, relative to SEQ ID NO: 1); cAMP assay, from EC50.
1.1
